System: IGROV-1
Experiment: NCI tumour cell line growth inhibition, 48 h
Active and inactive are the calls of the source. Cut-off read from the data, not from the text of the source: active = GI50 up to about 1.1 µM and inactive = higher.
Field 'call' accepts active, inactive

// param item: O=C(O)c1c(Cl)c(Cl)c(Cl)c(Cl)c1C(=O)Nc1ccc2cn[nH]c2c1 ; yields the recorded call
inactive

Repeat for the following compound: CCC(C)C1NC(=O)CNC(=O)C2Cc3c([nH]c4cc(O)ccc34)[S+]([O-])CC(NC(=O)CNC1=O)C(=O)NC(CC(=O)O)C(=O)N1CC(O)CC1C(=O)NC(C(C)C(O)CO)C(=O)N2 (stereo unspecified)
inactive

Repeat for the following compound: COc1ccc(/N=N/C(=N\c2ccccc2)c2ccc(N(CCC#N)CCC#N)cc2)cc1
inactive

Repeat for the following compound: S=C(NCCc1ccccn1)N/N=C/c1ccccn1
active

Repeat for the following compound: [N-]=[N+]=NI1OC(=O)c2ccccc21
inactive

Repeat for the following compound: N/C(=N\O)N/N=C/c1cc(Br)cc(Br)c1O
active
